- Test system: Mus musculus
- ASSAY: Anticonvulsant activity in albino Carworth Farms No.1 mouse assessed as protection against maximal electroshock-induced seizures at 300 mg/kg, ip after 4 hrs
- Format: functional, organism-based
Active and inactive are the calls of the source. The rule behind the calls is not given here.
MEASUREMENT NAME: Activity

>>> observed("CC(O)CNC(=O)/C=C/c1ccccc1 (racemic)")
"inactive"
>>> observed("CC(C)(CO)NC(=O)/C=C/c1ccccc1")
"inactive"
>>> observed("CCC(COC(C)=O)NC(=O)/C=C/c1ccccc1 (configuration not stated)")
"inactive"
>>> observed("CC(C)C(CO)NC(=O)/C=C/c1ccccc1 (racemic)")
"Active"
>>> observed("CC(=O)CNC(=O)/C=C/c1ccccc1")
"inactive"
>>> observed("CCC(CO)NC(=O)/C=C/c1ccccc1 (racemic)")
"inactive"
>>> observed("CC(=O)OC(C)CNC(=O)/C=C/c1ccccc1 (racemic)")
"Active"
